B1: Tyrosine-protein kinase Lck, residues 63 to 120; numbered along this chain, P06239 (parent)
chain: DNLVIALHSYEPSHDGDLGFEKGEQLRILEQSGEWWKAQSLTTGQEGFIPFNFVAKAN

Variants of: B1
Assay: abundance fitness (aPCA) (normalised: wild type 0, dead -1); higher = more abundant; growth selection in yeast, the domain comes from the species named
Conditions: Homo sapiens
EXPERIMENTAL_ENDPOINT: abundance fitness

F20A :: -0.52
Q45D :: -0.217
W36S :: -0.408
G23W :: -0.648
N52L :: -0.624
N52R :: -0.017

In: For the variant G23Q , give its reported abundance fitness.
Out: -0.903

In: Answer with the recorded abundance fitness of G16A only.
Out: -0.366
